Test system: DU145
Assay: Euclidean distance of Cell Painting phenotypic profile (signed KS, 77 features) to DMSO centroid (dimensionless distance); 5 or 10 uM (library dependent); higher = stronger phenotypic change vs DMSO (phenoactivity)
Conditions: 48 h
Counter-ions that a name gives are not always drawn.
Reported Euclidean distance values are given for each entry in this list.
The answer should be written as a number, with no unit following it.

Observe how each entry below is paired with its result.
| compound | systemUnderTest | quantityName | assayResult |
| --- | --- | --- | --- |
| CC[C@H]1OC(=O)[C@H](C)[C@@H](O[C@H]2C[C@@](C)(OC)[C@@H](O)[C@H](C)O2)[C@H](C)[C@@H](O[C@@H]2O[C@H](C)C[C@H](N(C)C)[C@H]2O)[C@](C)(O)C[C@@H](C)C(=O)[C@H](C)[C@H]2OC(=O)O[C@@]21C [Erythromycin Cyclocarbonate] | DU145 | Euclidean distance | 0.736 |
| C=C1C[C@@]2(O)O[C@@]3(C[C@H]2C(C)C)[C@@H](C)CC[C@@H]13 | DU145 | Euclidean distance | 0.943 |
| CCOC(=O)c1c(N)sc2c1CCN(Cc1ccccc1)C2 [Tinoridine hydrochloride] | DU145 | Euclidean distance | 1.2 |
| COc1c(C)c(C(=O)c2ccc(N)c(C(=O)O)c2)n2ccccc12 | DU145 | Euclidean distance | 0.919 |
| CO[C@H]1C(=O)[C@]2(C)[C@@H](OC)C[C@H]3OC[C@@]3(OC(C)=O)[C@H]2[C@H](OC(=O)c2ccccc2)[C@]2(O)C[C@H](OC(=O)[C@H](O)[C@@H](NC(=O)OC(C)(C)C)c3ccccc3)C(C)=C1C2(C)C | DU145 | Euclidean distance | 3.88 |
| CO[C@@H]1[C@@H](O[C@@H]2O[C@H](C)[C@@H](O[C@H]3C[C@@](C)(O)[C@@H](OC(=O)CC(C)C)[C@H](C)O3)[C@H](N(C)C)[C@H]2O)[C@@H](CC=O)C[C@@H](C)[C@@H](O)/C=C/C=C/C[C@@H](C)OC(=O)C[C@H]1O | DU145 | Euclidean distance | 1.49 |

Please give the measured Euclidean distance for this compound: C[C@H](NC(=O)Cc1cc(F)cc(F)c1)C(=O)N[C@@H]1C(=O)N(C)c2ccccc2-c2ccccc21 1.17

Moving on to OCCN(CCO)c1nc(N2CCCCC2)c2nc(N(CCO)CCO)nc(N3CCCCC3)c2n1 1.33

Moving on to COc1ccc(OC)c(C(O)CNC(=O)CN)c1 (stereo not drawn) 0.468

Moving on to CC[C@H](NC(=O)[C@H](C)NC)C(=O)N1C[C@@H](O)C[C@H]1Cc1c(-c2[nH]c3cc(F)ccc3c2C[C@@H]2C[C@H](O)CN2C(=O)[C@H](CC)NC(=O)[C@H](C)NC)[nH]c2cc(F)ccc12 2.69

Moving on to COc1ccc(-c2coc3cc(O)cc(O)c3c2=O)cc1 0.839
